targetSystem: T1, ECD region of Her2 (human, UniProt P04626 23-652)
T1 construct: extracellular domain; Generic target of the scFv screen; also called extracellular domain (ECD) of Her2 (ErbB2)
protocolNotes: screening after three rounds of phage selection, soluble periplasmic scFv
recordedMetric: binding result

binder	measured
S1R3A1_CS_1B9 (scFv, V domains shown, scFv, soluble from bacterial periplasm in the screen; also called Her2_S1R3A1_CS_1B9) VH: KVQLVQSGTEVKKPGESLKISCQGSGYRFSSDWIAWVRQMPGKGLEWMGIVYPGDSDTRYSPSFQGQVTISADKSISTAYLQWSGLKASDTAKYYCARVQQAVGAKGYAMDVWGKGTLVTVSS VL: QTVVIQEPSFSVSPGGTVTLTCGLSSGSVSTSYYPSWYRQTPGQAPHTLIHNTKIRSSGVPDRFSGSILGNNAALTITGAQADDESDYYCLLYMGSGIYVFGGGTKLTVL	binds
